These data points were gathered from ChEMBL document CHEMBL1136184.

- Tested target: Tyrosine-protein phosphatase non-receptor type 11 (Homo sapiens)
- Sequence (Q06124 whole entry): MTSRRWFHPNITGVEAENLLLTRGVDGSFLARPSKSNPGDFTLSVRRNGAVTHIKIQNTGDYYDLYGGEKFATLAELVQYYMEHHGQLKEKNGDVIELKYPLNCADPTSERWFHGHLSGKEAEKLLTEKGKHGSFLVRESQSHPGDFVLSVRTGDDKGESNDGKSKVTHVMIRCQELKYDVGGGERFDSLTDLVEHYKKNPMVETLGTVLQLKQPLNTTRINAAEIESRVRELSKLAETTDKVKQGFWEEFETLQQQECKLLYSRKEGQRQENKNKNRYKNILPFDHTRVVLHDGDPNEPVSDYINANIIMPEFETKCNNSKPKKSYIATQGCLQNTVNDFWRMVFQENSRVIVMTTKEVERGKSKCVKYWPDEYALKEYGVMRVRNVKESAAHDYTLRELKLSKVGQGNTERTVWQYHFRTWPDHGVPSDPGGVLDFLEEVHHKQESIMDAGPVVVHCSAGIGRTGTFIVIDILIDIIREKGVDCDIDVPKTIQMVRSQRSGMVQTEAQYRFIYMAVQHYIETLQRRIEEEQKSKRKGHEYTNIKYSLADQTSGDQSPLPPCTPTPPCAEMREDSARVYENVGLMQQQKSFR
- Assay notes: In vitro inhibitory concentration required against Tyrosine phosphatase SHP-2 in the presence of 300 nM DTT
Assay metric: pIC50
Numbers only, as −log10 of the molar value.

Worked examples, 2 compounds total:
CCN(CC)Cc1nnc2nc(N)nc(N)c2n1 ... 4.85
Nc1nc(N)c2nc(CN3CCN(Cc4ccccc4)CC3)nnc2n1 ... 5.05

// below: pIC50 requested for another compound
Could you share which pIC50 value was measured for "Nc1nc(N)c2nc(CN3CCN(Cc4ccc(-c5ccccc5)cc4)CC3)nnc2n1" ?
5.30

----------
- Tested target: Tyrosine-protein phosphatase non-receptor type 1 (Homo sapiens)
- Assay notes: Inhibition of Protein-tyrosine phosphatase 1B in 2 mM DTT
Exam item: assign 1.0 to entries whose IC50 is below 40 µM and 0.0 to entries at or above 40 µM. Note that a value of exactly 40 µM receives 0.0.

Nc1nc(N)c2nc(CN3CCNCC3)nnc2n1 ... 0.0
Nc1nc(N)c2nc(CN3CCOCC3)nnc2n1 ... 0.0
Nc1nc(N)c2nc(CN3CCN(c4ccccc4)CC3)nnc2n1 ... 0.0

Does this compound meet the criterion IC50 < 40 µM? "CCN(CC)Cc1nnc2nc(N)nc(N)c2n1"
0.0

Does this compound meet the criterion IC50 < 40 µM? "Nc1nc(N)c2nc(CN3CCN(Cc4ccc5ccccc5c4)CC3)nnc2n1"
1.0

Does this compound meet the criterion IC50 < 40 µM? "Nc1nc(N)c2nc(CN3CCN(Cc4ccc(-c5ccccc5)cc4)CC3)nnc2n1"
1.0

Does this compound meet the criterion IC50 < 40 µM? "CN1CCN(Cc2nnc3nc(N)nc(N)c3n2)CC1"
0.0

Does this compound meet the criterion IC50 < 40 µM? "Nc1nc(N)c2nc(CN3CCCCC3)nnc2n1"
0.0

Does this compound meet the criterion IC50 < 40 µM? "Nc1nc(N)c2nc(CN(CCO)CCO)nnc2n1"
0.0

Does this compound meet the criterion IC50 < 40 µM? "Nc1nc(N)c2nc(CN3CCN(Cc4ccccc4)CC3)nnc2n1"
0.0

----------
- Tested target: Receptor-type tyrosine-protein phosphatase alpha (Homo sapiens, UniProt P18433)
- Sequence (P18433 whole entry): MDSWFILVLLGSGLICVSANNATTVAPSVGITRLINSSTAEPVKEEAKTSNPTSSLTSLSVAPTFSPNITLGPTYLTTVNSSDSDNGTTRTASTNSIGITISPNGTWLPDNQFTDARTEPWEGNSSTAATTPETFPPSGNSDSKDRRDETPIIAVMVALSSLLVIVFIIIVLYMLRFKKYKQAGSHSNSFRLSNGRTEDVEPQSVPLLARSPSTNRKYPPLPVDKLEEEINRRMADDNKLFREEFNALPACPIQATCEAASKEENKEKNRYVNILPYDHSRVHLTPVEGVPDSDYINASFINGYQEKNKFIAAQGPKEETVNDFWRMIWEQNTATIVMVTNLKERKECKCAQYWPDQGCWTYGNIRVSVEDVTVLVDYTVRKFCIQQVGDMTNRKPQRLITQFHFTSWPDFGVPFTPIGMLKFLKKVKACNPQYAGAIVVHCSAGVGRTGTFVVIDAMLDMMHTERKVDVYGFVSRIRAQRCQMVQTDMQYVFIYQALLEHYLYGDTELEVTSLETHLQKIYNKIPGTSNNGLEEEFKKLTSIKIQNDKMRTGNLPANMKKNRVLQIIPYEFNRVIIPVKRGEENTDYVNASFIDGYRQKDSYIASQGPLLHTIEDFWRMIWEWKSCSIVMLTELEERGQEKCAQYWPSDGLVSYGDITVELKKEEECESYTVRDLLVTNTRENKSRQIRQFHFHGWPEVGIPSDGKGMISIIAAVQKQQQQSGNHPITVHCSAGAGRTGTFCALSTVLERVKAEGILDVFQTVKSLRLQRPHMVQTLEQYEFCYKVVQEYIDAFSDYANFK
- Assay notes: In vitro inhibitory concentration required against Protein-tyrosine phosphatase alpha in the presence of 300 nM DTT
Assay metric: pIC50
Numbers only, as −log10 of the molar value.

Nc1nc(N)c2nc(CN3CCN(Cc4ccc(-c5ccccc5)cc4)CC3)nnc2n1 ... 4.82
CCN(CC)Cc1nnc2nc(N)nc(N)c2n1 ... 4.55

// below: pIC50 requested for another molecule
Missing value: pIC50, Receptor-type tyrosine-protein phosphatase alpha (Homo sapiens, UniProt P18433), entry "Nc1nc(N)c2nc(CN3CCN(Cc4ccccc4)CC3)nnc2n1" . Fill in?
4.62

----------
Assignment: determine reported IC50 for the given compounds.
- Tested target: Receptor-type tyrosine-protein phosphatase F (Homo sapiens)
- Sequence (P10586 whole entry): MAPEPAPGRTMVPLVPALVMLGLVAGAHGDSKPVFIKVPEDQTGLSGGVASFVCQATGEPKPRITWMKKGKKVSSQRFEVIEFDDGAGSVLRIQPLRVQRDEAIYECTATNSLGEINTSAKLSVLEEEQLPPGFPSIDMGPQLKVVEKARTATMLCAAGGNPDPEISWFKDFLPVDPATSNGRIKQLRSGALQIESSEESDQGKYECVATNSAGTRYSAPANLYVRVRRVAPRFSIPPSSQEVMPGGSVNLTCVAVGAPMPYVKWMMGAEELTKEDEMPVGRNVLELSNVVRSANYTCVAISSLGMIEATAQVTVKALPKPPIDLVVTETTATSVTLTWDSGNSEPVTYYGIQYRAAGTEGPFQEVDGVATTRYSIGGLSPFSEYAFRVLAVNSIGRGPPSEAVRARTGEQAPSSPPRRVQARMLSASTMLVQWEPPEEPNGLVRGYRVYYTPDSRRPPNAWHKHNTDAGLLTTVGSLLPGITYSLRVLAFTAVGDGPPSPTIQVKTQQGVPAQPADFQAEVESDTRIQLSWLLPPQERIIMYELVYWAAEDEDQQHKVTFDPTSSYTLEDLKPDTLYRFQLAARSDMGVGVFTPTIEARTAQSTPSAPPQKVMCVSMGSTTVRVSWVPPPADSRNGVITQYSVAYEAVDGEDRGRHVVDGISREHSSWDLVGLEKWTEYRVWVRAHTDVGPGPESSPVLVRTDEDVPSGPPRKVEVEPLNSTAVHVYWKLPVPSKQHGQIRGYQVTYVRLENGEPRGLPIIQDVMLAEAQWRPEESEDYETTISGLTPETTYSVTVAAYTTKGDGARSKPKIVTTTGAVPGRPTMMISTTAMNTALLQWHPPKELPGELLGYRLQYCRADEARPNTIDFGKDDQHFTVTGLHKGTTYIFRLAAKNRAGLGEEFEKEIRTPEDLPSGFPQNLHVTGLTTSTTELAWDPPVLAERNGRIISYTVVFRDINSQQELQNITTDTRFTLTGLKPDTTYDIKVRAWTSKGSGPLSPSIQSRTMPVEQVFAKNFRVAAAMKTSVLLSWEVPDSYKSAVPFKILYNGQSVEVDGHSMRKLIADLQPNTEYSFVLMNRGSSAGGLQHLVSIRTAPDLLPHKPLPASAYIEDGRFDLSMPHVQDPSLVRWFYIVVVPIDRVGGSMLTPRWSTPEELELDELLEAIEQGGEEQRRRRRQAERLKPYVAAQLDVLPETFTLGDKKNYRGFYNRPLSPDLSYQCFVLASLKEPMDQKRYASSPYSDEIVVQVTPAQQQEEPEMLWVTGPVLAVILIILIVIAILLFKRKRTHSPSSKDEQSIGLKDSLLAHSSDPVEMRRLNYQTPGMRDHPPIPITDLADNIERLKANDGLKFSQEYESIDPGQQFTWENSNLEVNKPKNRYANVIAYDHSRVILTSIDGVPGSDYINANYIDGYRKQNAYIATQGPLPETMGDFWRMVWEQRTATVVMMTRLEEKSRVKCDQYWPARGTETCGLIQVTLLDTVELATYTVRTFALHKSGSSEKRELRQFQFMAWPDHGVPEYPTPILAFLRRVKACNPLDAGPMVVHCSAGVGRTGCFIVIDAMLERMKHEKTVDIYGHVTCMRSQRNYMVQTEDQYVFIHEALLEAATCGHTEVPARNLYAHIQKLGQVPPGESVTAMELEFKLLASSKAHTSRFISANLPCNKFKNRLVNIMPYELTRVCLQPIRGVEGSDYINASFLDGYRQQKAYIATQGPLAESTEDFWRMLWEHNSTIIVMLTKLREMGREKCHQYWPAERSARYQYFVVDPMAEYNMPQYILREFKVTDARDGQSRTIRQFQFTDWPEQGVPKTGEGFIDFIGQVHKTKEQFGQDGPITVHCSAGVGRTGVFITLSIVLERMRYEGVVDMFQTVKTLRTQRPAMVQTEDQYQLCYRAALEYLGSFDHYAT
- Assay notes: In vitro inhibitory concentration required against Leukocyte antigen related receptor phosphatase (LAR) in the presence of 300 nM DTT
Answers are plain numbers, in µM.

Worked examples, 2 compounds total:
Nc1nc(N)c2nc(CN3CCN(Cc4ccccc4)CC3)nnc2n1 ... 12
Nc1nc(N)c2nc(CN3CCN(Cc4ccc(-c5ccccc5)cc4)CC3)nnc2n1 ... 16

// below: IC50 requested for another compound
Could you share which IC50 value was measured for "CCN(CC)Cc1nnc2nc(N)nc(N)c2n1" ?
28

----------
- Tested target: Tyrosine-protein phosphatase non-receptor type 1 (Homo sapiens, UniProt P18031)
- Sequence (P18031 whole entry): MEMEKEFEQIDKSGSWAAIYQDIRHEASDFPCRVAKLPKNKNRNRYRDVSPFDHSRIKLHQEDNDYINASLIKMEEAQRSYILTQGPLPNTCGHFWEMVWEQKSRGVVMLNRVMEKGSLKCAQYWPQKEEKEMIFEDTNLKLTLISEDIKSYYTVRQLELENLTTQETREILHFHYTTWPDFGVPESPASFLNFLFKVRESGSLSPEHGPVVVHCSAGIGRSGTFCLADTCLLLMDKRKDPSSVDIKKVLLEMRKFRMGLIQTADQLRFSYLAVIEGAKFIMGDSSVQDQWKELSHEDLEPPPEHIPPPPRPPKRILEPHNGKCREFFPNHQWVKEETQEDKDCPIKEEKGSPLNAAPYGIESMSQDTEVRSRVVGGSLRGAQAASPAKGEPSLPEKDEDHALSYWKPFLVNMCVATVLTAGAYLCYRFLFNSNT
- Assay notes: Inhibition of Protein-tyrosine phosphatase 1B in 300 nM DTT
pIC50: −log10 of the molar value.
Please mark condition met if the recorded pIC50 is equal to or greater than 5, and condition not met if it falls below.

Recorded results for 3 compounds are shown here.
Nc1nc(N)c2nc(CN3CCNCC3)nnc2n1 ... condition not met
Nc1nc(N)c2nc(CN3CCCCC3)nnc2n1 ... condition not met
Nc1nc(N)c2nc(CN3CCN(Cc4cccc5ccccc45)CC3)nnc2n1 ... condition met

In the following, a different compound is considered.
Assess whether reported pIC50 for "Nc1nc(N)c2nc(CN3CCOCC3)nnc2n1" sits at 5 or higher.
condition not met

----------
- Assay notes: Plasma clearance in mice
- Type: ADME, organism-based
- Settings: mouse
Assay metric: clearance (mL/min/kg)
Numbers only, in mL/min/kg.

Could you share which clearance value was measured for "Nc1nc(N)c2nc(CN3CCN(Cc4ccc(-c5ccccc5)cc4)CC3)nnc2n1" ?
104

----------
- Assay notes: Oral availability at 50 mg/kg po in male mice
- Format: ADME, organism-based
- Parameters: dose 50 mg/kg, route oral
- Settings: mouse, in vivo
Assay metric: bioavailability
# include the unit after the value

Could you share which bioavailability value was measured for "Nc1nc(N)c2nc(CN3CCN(Cc4ccc(-c5ccccc5)cc4)CC3)nnc2n1" ?
97%

----------
- Tested target: Tyrosine-protein phosphatase non-receptor type 1 (Homo sapiens, UniProt P18031)
- Assay notes: Inhibition of Protein-tyrosine phosphatase 1B in 300 nM DTT
Assignment: determine reported IC50 for the given compounds.

Worked examples, 3 compounds total:
Nc1nc(N)c2nc(CN(CCO)CCO)nnc2n1 ... 97 µM
CN1CCN(Cc2nnc3nc(N)nc(N)c3n2)CC1 ... 21 µM
Nc1nc(N)c2nc(CN3CCN(c4ccccc4)CC3)nnc2n1 ... > 100 µM

Could you share which IC50 value was measured for "Nc1nc(N)c2nc(CN3CCN(Cc4ccc5ccccc5c4)CC3)nnc2n1" ?
3.5 µM
